Experiment: qHTS for Inhibitors of human tyrosyl-DNA phosphodiesterase 1 (TDP1): qHTS in cells in presence of CPT; note: nearly all actives have a fitted effect of over 55% in size
Conditions: chicken DT40 Tdp1-/-;hTDP1 cells + 20 nM CPT, ATP luminescence, 48 h; series mostly up to 46.2 µM
Protocol: Human tyrosyl-DNA phosphodiesterase 1 (TDP1) is a novel repair gene, and we propose to use it as a new target for anticancer drug development. […] For the primary screen, Tdp1-/-;hTDP1 cells will be exposed to small molecules in the presence or absence of CPT, and their growth kinetics will be evaluated after 48 hours by measuring ATP activity. […] The hit compounds will then be evaluated in the presence or absence of CPT using Tdp1-/- cells. […]
Screen size: about 420,000 compounds; about 50,000 (12%) were called active. Roughly 26% stayed inconclusive and do not appear here. Calls come from the whole dose curve; as a rule, active = well fitted inhibition curve with a large enough effect; inconclusive = small, poorly fitted or top-dose-only effect; inactive = flat fitted curve, though single readings scatter. The sample holds actives, similar compounds and a random draw of the others, so the mix is not that of the screen.
Allowed answers: YES = active, NO = inactive

Field: outcome | Entry: `O=C(Nc1ccc(S(=O)(=O)Nc2ncccn2)cc1)C12CC3CC(CC(C3)C1)C2` NO

Field: outcome | Entry: `COc1ccc2occ(C(=O)c3ccc(N=C(C)N(C)C)cc3)c2c1` YES

New cases:
Field: outcome | Entry: `Nc1ccccc1SCc1cc([N+](=O)[O-])cc2c1OCOC2` NO

Field: outcome | Entry: `Cc1ccc(NC(=O)CSCC(=O)Nc2sccc2C#N)cc1` NO

Field: outcome | Entry: `O=C(/C=C/c1ccccc1[N+](=O)[O-])OCC(=O)N1CCCC1` NO

Field: outcome | Entry: `CCOC(=O)c1c(NC(=O)CSc2nnc(C)c(=O)[nH]2)sc2c1CCC2` NO

---

Test: qHTS for Inhibitors of human tyrosyl-DNA phosphodiesterase 1 (TDP1): qHTS in cells in presence of CPT; note: nearly all actives have a fitted effect of over 55% in size
Settings: chicken DT40 Tdp1-/-;hTDP1 cells + 20 nM CPT, ATP luminescence, 48 h; series mostly up to 46.2 µM
The whole screen tested about 420,000 compounds, of which about 50,000 (12%) were called active. Another 26% or so got no clear call; they are omitted. Calls come from the whole dose curve; as a rule, active = well fitted inhibition curve with a large enough effect; inconclusive = small, poorly fitted or top-dose-only effect; inactive = flat fitted curve, though single readings scatter. This excerpt belongs to a sample that is enriched for actives.
Allowed answers: yes (1) = active, no (0) = inactive

Reference set (8 entries):
Field: outcome | Entry: `COc1ccc(CCNC(=O)c2nnc(CS(=O)(=O)c3ccccc3)o2)cc1OC` no (0)

Field: outcome | Entry: `O=C(NCc1ccco1)c1ccc(CS(=O)(=O)Cc2ccc(F)cc2)o1` no (0)

Field: outcome | Entry: `CCc1cccc(CC)c1NC(=S)NCc1ccc2[nH]c(C)cc2c1` yes (1)

Field: outcome | Entry: `COc1ccc(CCNC(=O)Cc2ccc(C)cc2)cc1OC` no (0)

Field: outcome | Entry: CC1(C(=O)NS(=O)(=O)c2ccccc2)CCN1C(=O)c1ccccc1 (stereo unspecified) no (0)

Field: outcome | Entry: `COc1ccc(CCNC(=O)NS(=O)(=O)c2ccc(C)cc2)cc1OC` no (0)

Field: outcome | Entry: `CC(C)OC(=O)c1c(NC(=O)c2ccco2)sc2c1CCCC2` no (0)

Field: outcome | Entry: `Cc1ccc(CCNC(=O)c2ccc(CS(=O)(=O)Cc3cccc(C)c3)o2)cc1` yes (1)

New cases:
Field: outcome | Entry: `COc1ccc(CCNC(=O)c2ccc(CS(=O)(=O)c3ccc(Br)cc3)o2)cc1OC` yes (1)

Field: outcome | Entry: CCOC(=O)c1c(NC(=O)/C=C/c2ccc(OC)cc2)sc2c1CCC(C)C2 (stereo unspecified) no (0)

Field: outcome | Entry: `Cc1cc(/C=C(/C#N)C(=O)Nc2ccc(Cl)cc2)c(C)n1-c1cccnc1` no (0)

---

Assay: qHTS for Inhibitors of human tyrosyl-DNA phosphodiesterase 1 (TDP1): qHTS in cells in presence of CPT; note: nearly all actives have a fitted effect of over 55% in size
Settings: chicken DT40 Tdp1-/-;hTDP1 cells + 20 nM CPT, ATP luminescence, 48 h; series mostly up to 46.2 µM
Hit rate of the full screen: of about 420,000 compounds, about 50,000 (12%) were called active. Not shown: some 26% with an inconclusive outcome. Calls follow the shape of the dose curve; as a rule, active = well fitted inhibition curve with a large enough effect; inconclusive = small, poorly fitted or top-dose-only effect; inactive = flat fitted curve, though single readings scatter. This is one part of a sample in which actives are shown more often than they occur.
Allowed answers: active, inactive

Reference set (2 entries):
Field: outcome | Entry: CCCOc1ccc(/C(O)=C2/C(=O)C(=O)N(CCN(C)C)C2c2ccc(OC)c(OC)c2)cc1 (stereo unspecified) inactive

Field: outcome | Entry: `COc1ccccc1C(=O)NC(=S)NC12CC3CC(CC(C3)C1)C2` inactive

New cases:
Field: outcome | Entry: `CCN1CCN(c2ccc(S(=O)(=O)N3CCCCC3)cc2NC(=O)c2cccc(NC(C)=O)c2)CC1` inactive

Field: outcome | Entry: `CN(C)S(=O)(=O)c1ccc(N2CCCC2)c(C(=O)NCc2ccccc2)c1` inactive

Field: outcome | Entry: `Cc1noc(C)c1NC(=O)Nc1cccc2c1O[C@H](CN(C)C(=O)Nc1ccccc1)[C@@H](C)CN([C@H](C)CO)C2=O` inactive

---

Experiment: qHTS for Inhibitors of human tyrosyl-DNA phosphodiesterase 1 (TDP1): qHTS in cells in presence of CPT; note: nearly all actives have a fitted effect of over 55% in size
Conditions: chicken DT40 Tdp1-/-;hTDP1 cells + 20 nM CPT, ATP luminescence, 48 h; series mostly up to 46.2 µM
The campaign covered roughly 420,000 compounds. About 50,000 (12%) were called active. Inconclusive results (about 26%) are left out. The call rests on the fitted dose curve; in most records, active means well fitted inhibition curve with a large enough effect; inconclusive means small, poorly fitted or top-dose-only effect; inactive means flat fitted curve, though single readings scatter. The sample holds actives, similar compounds and a random draw of the others, so the mix is not that of the screen.
Allowed answers: active, inactive

Reference set (6 entries):
Field: outcome | Entry: `COc1ccccc1N1CCN(CC(=O)NC(=O)NCc2ccco2)CC1` inactive

Field: outcome | Entry: `COc1cccc(NC(=O)COc2cc(C)cc3oc(=O)cc(C)c23)c1` inactive

Field: outcome | Entry: `Cc1ccc(CNC(=O)C(=O)c2cn(CC(=O)N3CCCC3)c3ccccc23)cc1` inactive

Field: outcome | Entry: `COc1cccc(NC(=O)NCCN2CCCCC2)c1` inactive

Field: outcome | Entry: `O=C(c1cn(-c2ccccc2)nc1-c1cccnc1)N1CCN(S(=O)(=O)c2ccccc2F)CC1` inactive

Field: outcome | Entry: `CCN(CC)CCNS(=O)(=O)c1ccc(/C=C/C(=O)O)cc1` inactive

New cases:
Field: outcome | Entry: COc1cccc(NC(=O)C2(C)CCN2Cc2ccccc2Cl)c1 (stereo unspecified) active

Field: outcome | Entry: `NC(=O)Cn1cc(/C=N\NS(=O)(=O)c2ccccc2)c2ccccc21` inactive

Field: outcome | Entry: `O=C1/C(=C/c2cccs2)CCc2ccccc21` inactive

Field: outcome | Entry: `COc1ccc(/C=C2\CCc3ccccc3C2=O)c(OC)c1OC` active

Field: outcome | Entry: `Cc1cc(C)cc(NC(=O)CCS(=O)(=O)c2cc3c4c(c2)CCN4C(=O)CC3)c1` inactive

---

Experiment: qHTS for Inhibitors of human tyrosyl-DNA phosphodiesterase 1 (TDP1): qHTS in cells in presence of CPT; note: nearly all actives have a fitted effect of over 55% in size
Settings: chicken DT40 Tdp1-/-;hTDP1 cells + 20 nM CPT, ATP luminescence, 48 h; series mostly up to 46.2 µM
Procedure: Human tyrosyl-DNA phosphodiesterase 1 (TDP1) is a novel repair gene, and we propose to use it as a new target for anticancer drug development. […] For the primary screen, Tdp1-/-;hTDP1 cells will be exposed to small molecules in the presence or absence of CPT, and their growth kinetics will be evaluated after 48 hours by measuring ATP activity. […] The hit compounds will then be evaluated in the presence or absence of CPT using Tdp1-/- cells. […]
Hit rate of the full screen: of about 420,000 compounds, about 50,000 (12%) were called active. Another 26% or so got no clear call; they are omitted. Calls come from the whole dose curve; as a rule, active = well fitted inhibition curve with a large enough effect; inconclusive = small, poorly fitted or top-dose-only effect; inactive = flat fitted curve, though single readings scatter. The full list was thinned out, with actives kept by preference.
Allowed answers: active, inactive

Reference set (5 entries):
Field: outcome | Entry: COc1ccccc1C(=O)NC(CCSC)C(=O)N1CCN(C(C)=O)CC1 (stereo unspecified) inactive

Field: outcome | Entry: `CCOc1ccc(NC(=O)CN(C)C(=O)COc2cccc(CC)c2)cc1OCC` inactive

Field: outcome | Entry: `O=C(Oc1ccccc1Cl)c1ccc(N2CCOCC2)c([N+](=O)[O-])c1` inactive

Field: outcome | Entry: `O=C(c1ccc(Oc2ccc(Cl)cc2)c([N+](=O)[O-])c1)N1CCCC1` active

Field: outcome | Entry: `Cc1ccc(-c2noc(CCC(N)=O)n2)cc1` inactive

New cases:
Field: outcome | Entry: `CCOc1ccccc1NC(=O)CCc1nnc2ccc(NCc3ccco3)nn12` inactive

---

Assay: qHTS for Inhibitors of human tyrosyl-DNA phosphodiesterase 1 (TDP1): qHTS in cells in presence of CPT; note: nearly all actives have a fitted effect of over 55% in size; note: potency is the fitted concentration of half-maximal effect
Details: chicken DT40 Tdp1-/-;hTDP1 cells + 20 nM CPT, ATP luminescence, 48 h; series mostly up to 46.2 µM
Among all 420,000 compounds or so, about 50,000 (12%) were called active. Inconclusive results (about 26%) are left out. The full list was thinned out, with actives kept by preference.
assay endpoint: Potency

Completed entries (count: 4):
I would be grateful if you could share the reported Potency for `O=C(O)c1cc(S(=O)(=O)Nc2ccc3cn[nH]c3c2)ccc1Br` . inactive

I would be grateful if you could share the reported Potency for `CCc1ccccc1NC(=O)/C(=C/c1ccccc1)c1ccccc1` . 20.6 µM (active)

I would be grateful if you could share the reported Potency for `CC(=O)c1ccc(NC(=O)C2CCN(S(=O)(=O)c3c(C)noc3/C=C/c3ccc(C)cc3)CC2)cc1` . inactive

I would be grateful if you could share the reported Potency for Cc1ccc(C2CC(c3cccc(C)c3)n3nc(N)nc3N2)cc1 (stereo unspecified) . inactive

New cases:
I would be grateful if you could share the reported Potency for `COc1ccc(-c2ocnc2C(=O)Nc2ccc3c(c2)CCC3)cc1` . inactive

I would be grateful if you could share the reported Potency for `COCCNc1ncnc2ccc(-c3cccnc3)cc12` . 14.6 µM (active)

I would be grateful if you could share the reported Potency for `CCc1ccccc1NC(=O)CCOc1ccccc1` . inactive

I would be grateful if you could share the reported Potency for `CCOc1cc(C=NNC(=O)CCCC(=O)NN=Cc2ccc(O)c(OCC)c2)ccc1O` . inactive

I would be grateful if you could share the reported Potency for `CNC(=O)C1CCN(S(=O)(=O)c2c(C)noc2/C=C/c2cccc(C)c2)CC1` . inactive

I would be grateful if you could share the reported Potency for `COCCNc1ncnc2ccc(-c3ccccc3CN(C)C)cc12` . inactive

I would be grateful if you could share the reported Potency for `Nc1nc(NC(=O)/C=C/c2ccc(F)cc2)nn1-c1ccccc1` . inactive
